Each recorded value in this set is attributed to patent US12383631B2.

Biological target: T1, human IL-18 binding protein isoform a (IL-18BPa) (Homo sapiens, UniProt O95998)
T1 sequence (O95998 31-194): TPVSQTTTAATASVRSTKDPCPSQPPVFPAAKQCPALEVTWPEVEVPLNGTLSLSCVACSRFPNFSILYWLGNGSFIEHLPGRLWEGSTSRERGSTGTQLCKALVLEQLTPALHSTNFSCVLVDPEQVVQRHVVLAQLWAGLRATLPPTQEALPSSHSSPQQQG
Test: IL-18 Binding Protein inhibition cellular assay in NK-92 cells (Example 4 / 17C)
Format: cell-based
Conditions: inhibition by IL-18BP of IFNγ stimulation in NK92 cells
measurement kind: IC50
Please don't drop the unit; write it after the number.

Form field IC50, entry C162: IL-18 polypeptide: K8E, V11I, C38A, C76A, Q103R, C127A (protein) YFGKLESELSIIRNLNDQVLFIDQGNRPLFEDMTDSDARDNAPRTIFIISMYKDSQPRGMAVTISVKCEKISTLSAENKIISFKEMNPPDNIKDTKSDIIFFRRSVPGHDNKMQFESSSYEGYFLAAEKERDLFKLILKKEDELGDRSIMFTVQNED : 7.29 nM

Form field IC50, entry C153: IL-18 polypeptide: V11I, D37A, C38A, K53A, C76A, C127A (protein) YFGKLESKLSIIRNLNDQVLFIDQGNRPLFEDMTDSAARDNAPRTIFIISMYADSQPRGMAVTISVKCEKISTLSAENKIISFKEMNPPDNIKDTKSDIIFFQRSVPGHDNKMQFESSSYEGYFLAAEKERDLFKLILKKEDELGDRSIMFTVQNED : 2.22 nM

Form field IC50, entry C152: IL-18 polypeptide: V11I, S36A, C38A, K53A, C76A, C127A (protein) YFGKLESKLSIIRNLNDQVLFIDQGNRPLFEDMTDADARDNAPRTIFIISMYADSQPRGMAVTISVKCEKISTLSAENKIISFKEMNPPDNIKDTKSDIIFFQRSVPGHDNKMQFESSSYEGYFLAAEKERDLFKLILKKEDELGDRSIMFTVQNED : 7.85 nM
